# Tested on: Hepatitis C virus NS3 helicase
# assay-details: HCV NS3 helicase inhibitors, primary screen, biochemical, fluorescence polarization, LOPAC1280 library (AID 687035)
# assay-conditions: Purified HCV NS3 helicase, Cy5-dT15 ssDNA binding fluorescence polarization; hits give high values; concentration not given here
Calls of active or inactive are those of the source. Cut-off read from the data, not from the text of the source: active = inhibition above about 37%; inactive = the rest.
Entries and their inhibition values follow.

[[record]]
compound = "Oc1ccc2ccccc2c1SSc1c(O)ccc2ccccc12"
measurement_target = "Hepatitis C virus NS3 helicase"
experimental_endpoint = "inhibition"
measured_result = "3% (inactive)"

[[record]]
compound = "N[C@H](C(=O)O)c1cc(O)cc(O)c1"
measurement_target = "Hepatitis C virus NS3 helicase"
experimental_endpoint = "inhibition"
measured_result = "-1% (inactive)"

[[record]]
compound = "COc1cc2c(cc1O)CC[C@@H]1[C@@H]2CC[C@]2(C)[C@@H](O)CC[C@@H]12"
measurement_target = "Hepatitis C virus NS3 helicase"
experimental_endpoint = "inhibition"
measured_result = "-1% (inactive)"

[[record]]
compound = "CCCCCCCCc1ccc(-c2ccc(C(=O)O)cc2)cc1"
measurement_target = "Hepatitis C virus NS3 helicase"
experimental_endpoint = "inhibition"
measured_result = "0% (inactive)"

[[record]]
compound = "NCC(O)c1ccc(O)c(O)c1 (configuration not stated)"
measurement_target = "Hepatitis C virus NS3 helicase"
experimental_endpoint = "inhibition"
measured_result = "-3% (inactive)"

[[record]]
compound = "CCCCCCCCCCCCCCCC(=O)OC(CC(=O)O)C[N+](C)(C)C (configuration not stated)"
measurement_target = "Hepatitis C virus NS3 helicase"
experimental_endpoint = "inhibition"
measured_result = "-4% (inactive)"

[[record]]
compound = "CCn1c(=O)[nH]c2cc(Cl)c(Cl)cc21"
measurement_target = "Hepatitis C virus NS3 helicase"
experimental_endpoint = "inhibition"
measured_result = "-2% (inactive)"

[[record]]
compound = "CCCCCCCC/C=C\\CCCCCCCC(=O)NCCO"
measurement_target = "Hepatitis C virus NS3 helicase"
experimental_endpoint = "inhibition"
measured_result = "-1% (inactive)"


Find the measured inhibition of Cc1ccc(O)c(N=Nc2ccccc2)n1 and report it.
1% (inactive)

Find the measured inhibition of CC(C)N(CCC(=O)c1ccc2ccccc2c1)Cc1ccccc1 and report it.
-3% (inactive)

Find the measured inhibition of Oc1cc2c(cc1O)CN(C(=S)NCCc1ccc(Cl)cc1)CCC2 and report it.
0% (inactive)

Find the measured inhibition of O=C1Cc2c([nH]c3ccc(Br)cc23)-c2ccccc2N1 and report it.
1% (inactive)
